The origin of these recorded values is patent US12122763B2.

Target Of Assay: Androgen Receptor (AR) protein (Homo sapiens, UniProt P10275, T878A)
Construct: endogenous in cells; host or cells: LNCaP
Sequence (P10275 whole entry T878A): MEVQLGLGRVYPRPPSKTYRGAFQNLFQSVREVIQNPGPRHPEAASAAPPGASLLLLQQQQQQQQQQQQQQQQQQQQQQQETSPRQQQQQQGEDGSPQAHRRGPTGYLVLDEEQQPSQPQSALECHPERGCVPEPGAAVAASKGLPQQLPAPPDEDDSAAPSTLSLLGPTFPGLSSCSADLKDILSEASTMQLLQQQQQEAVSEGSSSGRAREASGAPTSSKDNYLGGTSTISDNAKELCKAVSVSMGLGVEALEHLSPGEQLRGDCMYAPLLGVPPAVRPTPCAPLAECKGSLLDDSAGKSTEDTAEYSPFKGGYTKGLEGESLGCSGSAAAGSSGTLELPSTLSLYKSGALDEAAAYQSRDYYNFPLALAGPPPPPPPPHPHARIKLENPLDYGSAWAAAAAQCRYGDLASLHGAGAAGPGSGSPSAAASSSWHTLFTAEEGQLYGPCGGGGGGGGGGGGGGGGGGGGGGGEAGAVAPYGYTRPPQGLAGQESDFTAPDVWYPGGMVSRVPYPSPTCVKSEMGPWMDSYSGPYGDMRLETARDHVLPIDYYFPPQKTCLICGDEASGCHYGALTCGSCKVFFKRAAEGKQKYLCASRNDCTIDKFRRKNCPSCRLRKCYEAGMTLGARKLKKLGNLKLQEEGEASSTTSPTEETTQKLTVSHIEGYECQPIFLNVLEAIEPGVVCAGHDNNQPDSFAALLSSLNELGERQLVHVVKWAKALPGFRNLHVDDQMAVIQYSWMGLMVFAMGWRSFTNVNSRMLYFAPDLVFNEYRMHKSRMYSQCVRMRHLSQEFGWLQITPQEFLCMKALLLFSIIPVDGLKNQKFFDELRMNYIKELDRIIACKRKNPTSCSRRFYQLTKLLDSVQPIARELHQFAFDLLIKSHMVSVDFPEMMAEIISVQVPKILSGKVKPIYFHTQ
Sequence (Q96SW2 whole entry partner): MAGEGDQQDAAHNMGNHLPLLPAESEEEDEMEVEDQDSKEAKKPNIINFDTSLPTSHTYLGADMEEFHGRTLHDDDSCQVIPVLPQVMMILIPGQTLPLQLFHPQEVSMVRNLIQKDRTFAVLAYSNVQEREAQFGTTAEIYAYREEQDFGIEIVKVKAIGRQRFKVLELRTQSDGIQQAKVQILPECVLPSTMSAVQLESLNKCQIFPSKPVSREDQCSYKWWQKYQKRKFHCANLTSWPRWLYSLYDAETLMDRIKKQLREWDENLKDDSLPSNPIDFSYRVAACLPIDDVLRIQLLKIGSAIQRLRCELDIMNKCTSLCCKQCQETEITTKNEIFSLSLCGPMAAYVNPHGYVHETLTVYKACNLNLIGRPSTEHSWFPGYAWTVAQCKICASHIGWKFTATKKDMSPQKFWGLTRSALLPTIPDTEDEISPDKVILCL
Test Details: Androgen Receptor (AR) protein degradation assay in LNCaP cells, western blotting
Format: cell-based
Particulars: 20 h, 0.1 μM compound
Procedure: Experimental Example 1: Androgen Receptor (AR) Protein Degradation Assay After treating LNCaP cells with the synthesized Example compound, the amount of AR protein present in the cells was measured. The amount of AR protein was measured using western blotting detection method. […] [Protein quantification] […] Then, absorbance was measured at a wavelength of 562 nm. The unknown protein concentration was measured using a BSA standard curve (0, 0.125, 0.25, 0.5, 1, 2 mg/ml). […]
Assign true whenever inhibition at 0.1 µM does not fall below 80%; assign false whenever it does.

compound="C[C@@H]1CN(CC2CCN(c3ccc(NC(=O)C4CCN(c5ccc(C#N)c(C(F)(F)F)c5)CC4)nc3)CC2)CCN1C1CN(c2ccc3c(c2)C(=O)N(C2CCC(=O)NC2=O)C3=O)C1 (some centres unmarked) [Example 40]" target_of_assay="Androgen Receptor (AR) protein (Homo sapiens, UniProt P10275, T878A)" category_label=true
compound="CC1(C(=O)Nc2ccc(N3CCC(CN4CC5(CCN(c6ccc7c(c6)C(=O)N(C6CCC(=O)NC6=O)C7=O)CC5)C4)CC3)cn2)CCN(c2ccc(C#N)c(C(F)(F)F)c2)CC1 (centres unmarked) [Example 51]" target_of_assay="Androgen Receptor (AR) protein (Homo sapiens, UniProt P10275, T878A)" category_label=true
compound="N#Cc1ccc(N2CCC(C(=O)Nc3ccc(N4CCC(CN5CCN(c6ccc7c(c6)C(=O)N(C6CCC(=O)NC6=O)C7=O)CC5)CC4)cn3)CC2)cc1C(F)(F)F (centres unmarked) [Example 1]" target_of_assay="Androgen Receptor (AR) protein (Homo sapiens, UniProt P10275, T878A)" category_label=true

API: the following record is the query input.
**Query** Given the entry N#Cc1ccc(N2CCC(C(=O)Nc3ccc(N4CCN(CCOC5CCN(c6ccc7c(c6)C(=O)N(C6CCC(=O)NC6=O)C7=O)CC5)CC4)cn3)CC2)cc1Cl (centres unmarked) [Example 118] , answer whether its inhibition at 0.1 µM meets or surpasses 80%.
**Result** false
